Can you tell me Emax (%) for the items I'm about to list?
- SYSTEM TESTED: T1, human MIC-1 receptor (hGFRAL, GDNF family receptor alpha like), full length (human, UniProt Q6UXV0 19-394)
- T1 sequence (looked up): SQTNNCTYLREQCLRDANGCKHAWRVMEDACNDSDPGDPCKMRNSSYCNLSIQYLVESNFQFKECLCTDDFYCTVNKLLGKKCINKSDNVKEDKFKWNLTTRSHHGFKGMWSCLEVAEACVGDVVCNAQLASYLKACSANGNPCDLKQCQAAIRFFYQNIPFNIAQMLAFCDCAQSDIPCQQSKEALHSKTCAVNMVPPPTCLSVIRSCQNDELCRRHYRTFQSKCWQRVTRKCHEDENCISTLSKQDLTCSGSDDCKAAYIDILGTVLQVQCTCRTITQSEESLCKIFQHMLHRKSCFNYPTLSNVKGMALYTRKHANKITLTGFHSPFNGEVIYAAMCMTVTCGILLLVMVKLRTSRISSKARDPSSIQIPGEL
- TEST SUMMARY: cell-based or functional assay
State the value, then name its unit.

The following binders each have a reported value; give each one's Emax (%).
1. …-MIC-1-Δ1-3 (ligand) SEPATSGSETPGTSTEPSEGSAPGGDHCPLGPGRCCRLHTVRASLEDLGWADWVLSPREVQVTMCIGACPSQFRAANMHAQIKTSLHRLKPDTVPAPCCVPASYNPMVLIQKTDTGVSLQTYDDLLAKDCHCI
2. (GEPS)5-MIC-1(SEQ ID NO: 1) (ligand) GEPSGEPSGEPSGEPSGEPSARNGDHCPLGPGRCCRLHTVRASLEDLGWADWVLSPREVQVTMCIGACPSQFRAANMHAQIKTSLHRLKPDTVPAPCCVPASYNPMVLIQKTDTGVSLQTYDDLLAKDCHCI
3. (SEPATSGSETPG)2-MIC-1-Δ1-3(M57L, M86L) (ligand) SEPATSGSETPGSEPATSGSETPGGDHCPLGPGRCCRLHTVRASLEDLGWADWVLSPREVQVTMCIGACPSQFRAANLHAQIKTSLHRLKPDTVPAPCCVPASYNPLVLIQKTDTGVSLQTYDDLLAKDCHCI
4. AAPEDEETPEQEGSGSGSGSGS-MIC-1-Δ1-3 (ligand) AAPEDEETPEQEGSGSGSGSGSGDHCPLGPGRCCRLHTVRASLEDLGWADWVLSPREVQVTMCIGACPSQFRAANMHAQIKTSLHRLKPDTVPAPCCVPASYNPMVLIQKTDTGVSLQTYDDLLAKDCHCI

Result:
["100%", "100%", "100%", "100%"]
